Recorded values, source paper PMC11995216.

Tested on: PAMPA
protocolConditions: Papp (x 10^-6 cm/s) / [row 10]; UV detection
Starred links: 1 amine or outer side, 2 acyl side, 3 side chain; linkers in the order of their positions; H or OH if unused. Non-standard residues stand in square brackets, D forms with d. Residues, ends and D or L forms follow the SMILES beside them. *: point of attachment. X2 = CCCCC[C@H](O*)C(=O)OCc1ccccc1; X1 = CCCCC[C@H](O[*:1])C(=O)[*:2]; Ahp(2) = CCCCC[C@H](N)C(=O)O; dNMeA = CN[C@H](C)C(=O)O; Boc = CC(C)(C)OC(=O)*; OBn = c1ccc(CO*)cc1
propertyLabel: Papp (×10⁻⁶ cm/s)
A number alone suffices; assume ×10⁻⁶ cm/s.

Example cases with answers are listed next.
1. CCCCC[C@H](NC(=O)[C@@H](C)N(C)C(=O)OC(C)(C)C)C(=O)N(C)[C@H](C)C(=O)O[C@@H](CCCCC)C(=O)N(C)[C@H](C)C(=O)O[C@@H](CCCCC)C(=O)N(C)[C@H](C)C(=O)O[C@@H](CCCCC)C(=O)OCc1ccccc1 [Compound L2.1] (Boc-[dNMeA][Ahp(2)][dNMeA][X1][dNMeA][X1][dNMeA]-X2)    4.04
2. CCCCC[C@H](NC(=O)[C@@H](C)N(C)C(=O)[C@H](CCCCC)NC(=O)[C@@H](C)N(C)C(=O)[C@H](CCCCC)NC(=O)[C@@H](C)N(C)C(=O)[C@H](CCCCC)NC(=O)[C@@H](C)N(C)C(=O)OC(C)(C)C)C(=O)OCc1ccccc1 [Compound L2.5] (Boc-[dNMeA][Ahp(2)][dNMeA][Ahp(2)][dNMeA][Ahp(2)][dNMeA][Ahp(2)]-OBn)    2.27
3. CCCCC[C@H](NC(=O)[C@@H](C)N(C)C(=O)[C@H](CCCCC)OC(=O)[C@@H](C)N(C)C(=O)[C@H](CCCCC)NC(=O)[C@@H](C)N(C)C(=O)[C@H](CCCCC)OC(=O)[C@@H](C)N(C)C(=O)OC(C)(C)C)C(=O)OCc1ccccc1 [Compound L2.3] (Boc-[dNMeA][X1][dNMeA][Ahp(2)][dNMeA][X1][dNMeA][Ahp(2)]-OBn)    3.2
4. CCCCC[C@H](OC(=O)[C@@H](C)N(C)C(=O)[C@H](CCCCC)OC(=O)[C@@H](C)N(C)C(=O)[C@H](CCCCC)OC(=O)[C@@H](C)N(C)C(=O)[C@H](CCCCC)OC(=O)[C@@H](C)N(C)C(=O)OC(C)(C)C)C(=O)OCc1ccccc1    1.75

Now look at this entry.
Output Papp of CCCCC[C@H](NC(=O)[C@@H](C)N(C)C(=O)OC(C)(C)C)C(=O)N(C)[C@H](C)C(=O)N[C@H](CCCCC)C(=O)N(C)[C@H](C)C(=O)O[C@@H](CCCCC)C(=O)N(C)[C@H](C)C(=O)O[C@@H](CCCCC)C(=O)OCc1ccccc1 (stereo in doubt)
2.68

###

System: PAMPA
protocolConditions: Papp (x 10^-6 cm/s) – UV Detection / [row 8]; UV Detection
propertyLabel: Papp (×10⁻⁶ cm/s)
Response body: numeric value in ×10⁻⁶ cm/s, unit text excluded.

These solved cases illustrate the format of a correct answer.
1. CCCCC[C@@H]1OC(=O)[C@@H](C)N(C)C(=O)[C@H](CCCCC)OC(=O)[C@@H](C)N(C)C(=O)[C@H](CCCCC)OC(=O)[C@@H](C)N(C)C(=O)[C@H](CCCCC)OC(=O)[C@@H](C)N(C)C1=O [Compound C1.4, ent-verticilide]    7.63
2. CCCCC[C@@H]1OC(=O)[C@@H](C)N(C)C(=O)[C@H](CCCCC)OC(=O)[C@@H](C)N(C)C1=O    5.55

// fetch Papp given entry CCCCC[C@@H]1OC(=O)[C@@H](C)N(C)C(=O)[C@H](CCCCC)OC(=O)[C@@H](C)N(C)C(=O)[C@H](CCCCC)OC(=O)[C@@H](C)N(C)C(=O)[C@H](CCCCC)OC(=O)[C@@H](C)N(C)C(=O)[C@H](CCCCC)OC(=O)[C@@H](C)N(C)C1=O
3.6

###

protocolConditions: Well 5 / %T; Well 5; calculated using Supplement Equation 1; UV detection
propertyLabel: %T (%)
Hi! Could you send only the number? It should be in %, unit omitted.

Kindly indicate its recorded %T. Item: CCCCC[C@H](OC(=O)[C@@H](C)N(C)C(=O)[C@H](CCCCC)OC(=O)[C@@H](C)N(C)C(=O)[C@H](CCCCC)OC(=O)[C@@H](C)N(C)C(=O)[C@H](CCCCC)OC(=O)[C@@H](C)N(C)C(=O)[C@H](CCCCC)OC(=O)[C@@H](C)N(C)C(=O)[C@H](CCCCC)OC(=O)[C@@H](C)N(C)C(=O)OC(C)(C)C)C(=O)OCc1ccccc1 [Compound L1.6]
0.37

###

Test system: PAMPA
protocolConditions: Papp (x 10^-6 cm/s) – ELSD Detection / [row 3]; ELSD Detection
Measured Papp by item
Entry rule: numbers only, all in ×10⁻⁶ cm/s.

1) CCCCC[C@@H]1OC(=O)[C@@H](C)N(C)C1=O    13.9

Tell me measured Papp for CCCCC[C@@H]1OC(=O)[C@@H](C)N(C)C(=O)[C@H](CCCCC)OC(=O)[C@@H](C)N(C)C1=O please.
4.72

Please give measured Papp of the following entry: CCCCC[C@@H]1OC(=O)[C@@H](C)N(C)C(=O)[C@H](CCCCC)OC(=O)[C@@H](C)N(C)C(=O)[C@H](CCCCC)OC(=O)[C@@H](C)N(C)C1=O [Compound C1.3, ent-verticilide B1]
3.96

Determine from records and report Papp for CCCCC[C@@H]1OC(=O)[C@@H](C)N(C)C(=O)[C@H](CCCCC)OC(=O)[C@@H](C)N(C)C(=O)[C@H](CCCCC)OC(=O)[C@@H](C)N(C)C(=O)[C@H](CCCCC)OC(=O)[C@@H](C)N(C)C(=O)[C@H](CCCCC)OC(=O)[C@@H](C)N(C)C(=O)[C@H](CCCCC)OC(=O)[C@@H](C)N(C)C1=O
1.99

Provide one value: measured Papp of CCCCC[C@@H]1OC(=O)[C@@H](C)N(C)C(=O)[C@H](CCCCC)OC(=O)[C@@H](C)N(C)C(=O)[C@H](CCCCC)OC(=O)[C@@H](C)N(C)C(=O)[C@H](CCCCC)OC(=O)[C@@H](C)N(C)C1=O [Compound C1.4, ent-verticilide]
4.28

Provide only the value of recorded Papp for CCCCC[C@@H]1OC(=O)[C@@H](C)N(C)C(=O)[C@H](CCCCC)OC(=O)[C@@H](C)N(C)C(=O)[C@H](CCCCC)OC(=O)[C@@H](C)N(C)C(=O)[C@H](CCCCC)OC(=O)[C@@H](C)N(C)C(=O)[C@H](CCCCC)OC(=O)[C@@H](C)N(C)C1=O
2.62

###

Test system: PAMPA
protocolConditions: Papp (x 10^-6 cm/s) / [row 9]; UV detection
Starred links: 1 amine or outer side, 2 acyl side, 3 side chain; linkers in the order of their positions; H or OH if unused. Non-standard residues stand in square brackets, D forms with d. Residues, ends and D or L forms follow the SMILES beside them. *: point of attachment. X2 = CCCCC[C@H](O*)C(=O)OCc1ccccc1; X1 = CCCCC[C@H](O[*:1])C(=O)[*:2]; Ahp(2) = CCCCC[C@H](N)C(=O)O; dNMeA = CN[C@H](C)C(=O)O; Boc = CC(C)(C)OC(=O)*
propertyLabel: Papp (×10⁻⁶ cm/s)
Reply with just the number (in ×10⁻⁶ cm/s).

// fetch Papp; item: CCCCC[C@H](NC(=O)[C@@H](C)N(C)C(=O)OC(C)(C)C)C(=O)N(C)[C@H](C)C(=O)O[C@@H](CCCCC)C(=O)N(C)[C@H](C)C(=O)O[C@@H](CCCCC)C(=O)N(C)[C@H](C)C(=O)O[C@@H](CCCCC)C(=O)OCc1ccccc1 [Compound L2.1] (Boc-[dNMeA][Ahp(2)][dNMeA][X1][dNMeA][X1][dNMeA]-X2) ; system: PAMPA
4.33

Please report Papp with PAMPA for item CCCCC[C@H](OC(=O)[C@@H](C)N(C)C(=O)[C@H](CCCCC)OC(=O)[C@@H](C)N(C)C(=O)[C@H](CCCCC)OC(=O)[C@@H](C)N(C)C(=O)[C@H](CCCCC)OC(=O)[C@@H](C)N(C)C(=O)OC(C)(C)C)C(=O)OCc1ccccc1 [Compound L1.4] .
2.15

###

protocolConditions: Well 2 / %T; Well 2; calculated using Supplement Equation 1; UV detection
Starred links: 1 amine or outer side, 2 acyl side, 3 side chain; linkers in the order of their positions; H or OH if unused. Non-standard residues stand in square brackets, D forms with d. Residues, ends and D or L forms follow the SMILES beside them. *: point of attachment. X1 = CCCCC[C@H](O[*:1])C(=O)[*:2]; Ahp(2) = CCCCC[C@H](N)C(=O)O; dNMeA = CN[C@H](C)C(=O)O; OBn = c1ccc(CO*)cc1
Each entry below lists one item and its recorded %T value.
Answer as a quantity: numeral, then unit.

Please review the entries below; each comes with its answer.
1) CCCCC[C@H](NC(=O)[C@@H](C)N(C)C(=O)OC(C)(C)C)C(=O)N(C)[C@H](C)C(=O)N[C@H](CCCCC)C(=O)N(C)[C@H](C)C(=O)O[C@@H](CCCCC)C(=O)N(C)[C@H](C)C(=O)O[C@@H](CCCCC)C(=O)OCc1ccccc1 (stereo in doubt)    0.4%
2) CCCCC[C@H](NC(=O)[C@@H](C)N(C)C(=O)[C@H](CCCCC)NC(=O)[C@@H](C)N(C)C(=O)[C@H](CCCCC)NC(=O)[C@@H](C)N(C)C(=O)[C@H](CCCCC)OC(=O)[C@@H](C)NC)C(=O)OCc1ccccc1 (H-[dNMeA][X1][dNMeA][Ahp(2)][dNMeA][Ahp(2)][dNMeA][Ahp(2)]-OBn)    0.54%

Next, consider the following molecule.
Return value of %T for input CCCCC[C@H](OC(=O)[C@@H](C)N(C)C(=O)OC(C)(C)C)C(=O)OCc1ccccc1 , no commentary.
0.51%
